Assay: qHTS Assay for Lipid Storage Modulators in Drosophila S3 Cells
Conditions: BODIPY lipid droplet fluorescence, 18-24 h, cells fed with added oleic acid; series mostly up to 46.1 µM
Screen size: about 320,000 compounds; about 2,100 (0.66%) were called active. About 53% were inconclusive and are not listed. Calls come from the whole dose curve; as a rule, active = well fitted inhibition curve with a large enough effect in the signal ratio, with a control signal flat (not every such curve was filed as active); inconclusive = small, poorly fitted or top-dose-only effect, or effect the other way, or a change in a side signal; inactive = flat fitted curve, though single readings scatter; the % refers to the signal ratio. The list comes from a sample in which actives are over-represented; it also holds close analogues and randomly drawn compounds.
Your reply should match one of these outcome classes. y for active, n for inactive

Worked examples follow.
{"Smiles code": "CCc1ccc(NC(=O)CSc2nc(-c3ccc(C)cc3)nc3c2Cc2c(CO)cnc(C)c2O3)cc1", "Qualitative label": "n"}
{"Smiles code": "COc1ccc(C(=O)NCC(=O)NCCc2c[nH]c3ccccc23)cc1OC", "Qualitative label": "n"}
{"Smiles code": "COc1cc(C(=O)NCCC2=CCCCC2)ccc1OC1CCN(C(C)=O)CC1", "Qualitative label": "n"}

Inquiry: State the result this test recorded for COc1cccc(-c2nc3c(c(SCC(=O)N4CCOCC4)n2)Cc2c(CO)cnc(C)c2O3)c1 .
Reply text: y

###

Assay: qHTS Assay for Lipid Storage Modulators in Drosophila S3 Cells;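 for cell number change: cells counted by Cell Tracker Red CMTPX staining in the red channel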
Settings: BODIPY lipid droplet fluorescence, 18-24 h, cells fed with added oleic acid; measured here: cell count max response
Out of some 320,000 compounds screened, about 2,100 (0.66%) were called active. Not shown: some 53% with an inconclusive outcome. This is one part of a sample in which actives are shown more often than they occur.
Experimental readout: cell number change
Give your result as the value with the unit written after it.

Sure, the documented cell number change for CCOc1ccc(CN2CCC(Cc3ccccc3)CC2)cc1 is 27.4%

Sure, the documented cell number change for CC1(C(=O)NC2CCCCCCC2)CCC(=O)N1Cc1ccco1 (configuration not stated) is 2.23%

Sure, the documented cell number change for COc1cc(CC(=O)OCC(=O)NC2CCCCC2C)cc(OC)c1OC (configuration not stated) is -2.51%

###

Assay: qHTS Assay for Lipid Storage Modulators in Drosophila S3 Cells
Conditions: BODIPY lipid droplet fluorescence, 18-24 h, cells fed with added oleic acid; series mostly up to 46.1 µM
Description: NIH Molecular Libraries Probe Production Centers Network [MLPCN] NIH Chemical Genomics Center [NCGC] […] Triacsin C (Sigma-Aldrich T-4540), an inhibitor of long-chain fatty acyl CoA synthetase that blocks synthesis of triglycerides, was used as a positive control for lipid under-storage. […] Fluorescence was detected by excitation of the fluorophores with a 488-nm laser on an Acumen Explorer (TTP Lab Tech). […] Cells were detected using channel 3 (575-640 nm) with 5-um width and 100-um depth filters. […]
The whole screen tested about 320,000 compounds, of which about 2,100 (0.66%) were called active. Inconclusive results (about 53%) are left out. The call rests on the fitted dose curve; in most records, active means well fitted inhibition curve with a large enough effect in the signal ratio, with a control signal flat (not every such curve was filed as active); inconclusive means small, poorly fitted or top-dose-only effect, or effect the other way, or a change in a side signal; inactive means flat fitted curve, though single readings scatter; the % refers to the signal ratio. The entries come from a sample that favours actives as a whole.
Your reply should match one of these outcome classes. active, inactive

{"Molecule": "CCOC(=O)c1c(-n2cccc2)sc2c1CCCC2=O", "Qualitative label": "inactive"}
{"Molecule": "O=C1/C(=C/c2ccccc2)SC(=S)N1CC(=O)N1CCCCC1c1cccnc1 (configuration not stated)", "Qualitative label": "inactive"}
{"Molecule": "COc1ccc(C(C)=O)cc1COC(=O)c1cc(C)oc1C", "Qualitative label": "inactive"}
{"Molecule": "NC(=O)C1CCN(C(=O)CSc2nc3ccccc3s2)CC1", "Qualitative label": "active"}
{"Molecule": "O=C(NCCN1CCCC1)C1CCN(S(=O)(=O)N2CCC3(CC2)OCCO3)CC1", "Qualitative label": "active"}
{"Molecule": "N#Cc1ccccc1COC(=O)c1cc(=O)c2ccccc2o1", "Qualitative label": "inactive"}
{"Molecule": "COc1ccc(C(C)=O)cc1COC(=O)c1cc2ccccc2cc1O", "Qualitative label": "active"}
{"Molecule": "CCN1CCN(Cc2c(C)[nH]c3ccc(OC)cc3c2=O)CC1", "Qualitative label": "inactive"}

Inquiry: State the result this test recorded for COc1ccc(C(C)=O)cc1COC(=O)c1cc(=O)c2ccccc2o1 .
Reply text: active

Inquiry: State the result this test recorded for COc1ccc(C(NC(=O)C(C)(C)C)NC(=O)C(C)(C)C)cc1 .
Reply text: inactive

Inquiry: State the result this test recorded for O=C(NCCCN1CCCCC1)C1CCN(S(=O)(=O)N2CCC3(CC2)OCCO3)CC1 .
Reply text: inactive

Source of measurements: PubChem BioAssay AID2685
